target: T1, hLTBP3-proTGFβ1 (human, UniProt Q9NS15 44-1303; P01137 30-390, limits assumed); assay: MSD-SET, hIgG4
T1 construct: LLC as m1; Same id used for the cell-made complex in reporter assays; also called human LTBP3-proTGFβ1 complex; LTBP3-ProTGFb1
T1 sequence (Q9NS15 44-1303 limits assumed, chain 1 of 2): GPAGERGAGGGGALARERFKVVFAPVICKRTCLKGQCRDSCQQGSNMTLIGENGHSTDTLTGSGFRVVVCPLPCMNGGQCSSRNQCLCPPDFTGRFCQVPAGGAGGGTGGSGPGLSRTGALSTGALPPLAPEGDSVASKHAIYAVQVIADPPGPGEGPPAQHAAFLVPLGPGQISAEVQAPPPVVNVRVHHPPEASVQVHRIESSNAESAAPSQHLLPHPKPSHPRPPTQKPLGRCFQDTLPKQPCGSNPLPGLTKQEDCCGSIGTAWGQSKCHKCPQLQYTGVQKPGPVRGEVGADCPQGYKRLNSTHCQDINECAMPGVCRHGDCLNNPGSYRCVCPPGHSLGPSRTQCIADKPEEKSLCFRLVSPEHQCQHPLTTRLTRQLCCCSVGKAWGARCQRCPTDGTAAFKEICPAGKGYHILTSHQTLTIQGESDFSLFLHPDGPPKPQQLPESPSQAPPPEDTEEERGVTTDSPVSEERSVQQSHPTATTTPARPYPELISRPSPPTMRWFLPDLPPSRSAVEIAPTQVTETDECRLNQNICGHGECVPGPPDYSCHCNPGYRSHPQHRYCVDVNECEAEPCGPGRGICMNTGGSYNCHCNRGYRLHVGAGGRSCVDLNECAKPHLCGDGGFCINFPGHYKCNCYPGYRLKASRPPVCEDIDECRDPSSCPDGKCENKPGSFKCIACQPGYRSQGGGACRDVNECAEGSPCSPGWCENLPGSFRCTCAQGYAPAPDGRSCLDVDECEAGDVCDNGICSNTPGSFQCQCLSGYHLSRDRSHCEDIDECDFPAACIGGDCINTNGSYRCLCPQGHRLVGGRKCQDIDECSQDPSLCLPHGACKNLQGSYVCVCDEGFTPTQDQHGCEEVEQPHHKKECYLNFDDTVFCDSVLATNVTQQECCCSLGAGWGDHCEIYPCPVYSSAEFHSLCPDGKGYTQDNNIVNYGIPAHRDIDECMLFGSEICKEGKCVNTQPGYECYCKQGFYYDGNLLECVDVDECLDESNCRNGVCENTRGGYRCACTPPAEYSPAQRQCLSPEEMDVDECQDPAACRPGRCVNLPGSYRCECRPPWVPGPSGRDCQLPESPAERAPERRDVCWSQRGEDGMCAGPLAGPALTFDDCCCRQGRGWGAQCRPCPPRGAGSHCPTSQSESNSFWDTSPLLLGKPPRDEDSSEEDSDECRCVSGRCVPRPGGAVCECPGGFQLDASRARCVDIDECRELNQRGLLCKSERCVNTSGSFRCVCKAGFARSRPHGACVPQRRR
T1 sequence (P01137 30-390 limits assumed, chain 2 of 2): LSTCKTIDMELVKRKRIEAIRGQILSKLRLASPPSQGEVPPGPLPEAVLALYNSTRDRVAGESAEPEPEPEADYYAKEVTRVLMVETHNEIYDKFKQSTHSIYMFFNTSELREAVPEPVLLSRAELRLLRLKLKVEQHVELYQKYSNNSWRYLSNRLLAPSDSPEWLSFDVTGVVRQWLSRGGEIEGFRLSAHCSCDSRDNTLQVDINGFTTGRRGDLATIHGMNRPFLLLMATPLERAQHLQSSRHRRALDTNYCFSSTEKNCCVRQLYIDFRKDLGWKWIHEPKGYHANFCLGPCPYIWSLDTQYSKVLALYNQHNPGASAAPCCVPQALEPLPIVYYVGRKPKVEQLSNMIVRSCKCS
attribute.measured: Kd (nM)
Provide the reading as a plain figure in nM.

// Kd lookup, key: Ab22 (antibody, V domains shown) VH: EVQLVESGGGLVQPGGSLRLSCAASGFTFGSFSMNWVRQAPGKGLEWVSYIHSDASTIYYADSVKGRFTISRDNAKNSLYLQMNSLRAEDTAVYYCARGVLDYGDMLDPWGQGTLVTVSS VL: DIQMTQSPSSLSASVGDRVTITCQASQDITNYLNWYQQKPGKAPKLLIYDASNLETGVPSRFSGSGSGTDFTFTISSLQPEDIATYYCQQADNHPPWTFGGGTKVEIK
0.033

Every entry's value here was drawn from patent US20240294623A1.
